- measured_target: T1, human Nectin-4 expressed on cells (human, UniProt Q96NY8 32-510)
- T1 construct: On SUM190, SUM185, MDA-MB-468 cells (endogenous) or transfected cells; 31-residue signal peptide left out; also called huN4; wild-type human Nectin-4
- T1 sequence: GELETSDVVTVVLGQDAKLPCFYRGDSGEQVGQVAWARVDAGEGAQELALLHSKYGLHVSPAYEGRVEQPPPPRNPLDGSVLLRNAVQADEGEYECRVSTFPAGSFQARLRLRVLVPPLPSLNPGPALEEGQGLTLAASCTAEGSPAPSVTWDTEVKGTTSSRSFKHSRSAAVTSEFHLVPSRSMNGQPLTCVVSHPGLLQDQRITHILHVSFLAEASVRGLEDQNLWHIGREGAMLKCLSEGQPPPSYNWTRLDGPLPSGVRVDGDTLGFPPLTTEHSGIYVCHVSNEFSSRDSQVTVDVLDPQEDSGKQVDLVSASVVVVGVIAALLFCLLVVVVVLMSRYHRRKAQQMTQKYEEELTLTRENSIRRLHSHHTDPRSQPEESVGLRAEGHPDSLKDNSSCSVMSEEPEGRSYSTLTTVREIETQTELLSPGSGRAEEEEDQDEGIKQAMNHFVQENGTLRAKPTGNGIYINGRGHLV
- assay_remarks: flow cytometry on SUM190 cells, MedFI at saturation
Classify by measured Max MedFi: Yes if it is equal to or exceeds 20000 MedFI, No if it is smaller.

Item H0L0 (antibody, human IgG1, V domains shown, human IgG1 isotype; also called HOLO; humanized 5E7 variant H0L0) VH: QVQLVQSGAEVKKPGASVKVSCKASGYTFTSYWMHWVRQAPGQGLEWMGEIDPSDSYTNYNQKFKGRVTMTRDTSTSTVYMELSSLRSEDTAVYYCARGYGNYGDYWGQGTLVTVSS VL: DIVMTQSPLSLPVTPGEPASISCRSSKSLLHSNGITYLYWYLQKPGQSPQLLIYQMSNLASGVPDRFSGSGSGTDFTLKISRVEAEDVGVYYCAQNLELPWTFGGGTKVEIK with Max MedFi of 20000 MedFI or above?
No

Item H7L1 (antibody, human IgG1, V domains shown, human IgG1 isotype) VH: QVQLVQSGAEVKKPGASVKVSCKASGYIFTSYWMHWVKQRPGQGLEWIGEIDPSDSYTNYNQKFKGRVTLTLDKSTSTTYMELSSLRSEDTAVYYCARGYGNYGDYWGQGTLVTVSS VL: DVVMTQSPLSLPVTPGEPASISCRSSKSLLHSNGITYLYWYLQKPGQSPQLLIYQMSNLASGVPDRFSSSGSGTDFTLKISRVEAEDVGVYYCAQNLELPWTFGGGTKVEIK with Max MedFi of 20000 MedFI or above?
No
